Hello, the source for this data is PubChem BioAssay AID1159580, in case you need it.

assay: chemical genetic growth profiling, strain panel (AID 1159580);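 note: tested at 20 µM; growth read once vehicle control cultures reached saturation at 30 °C; 1 = growth at the plate median or of vehicle wells; lower values mean less growth of the strain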; conditions: S. cerevisiae deletion strains, growth OD, locus YDR162C, strain NBP2
Hit rate of the full screen: of about 5,500 compounds, about 2,000 (36%) were called active. Not shown: some 18% with an inconclusive outcome. Cut-off read from the data, not from the text of the source: active = normalized growth mostly below about 0.91 (no sharp cut-off); inconclusive = no clear call, values can overlap the other calls; inactive = mostly above about 0.92. This is one part of the list.
Outcomes: active, inactive

compound	answer label
Cc1cc(NC(=O)C2=C(O)c3ccccc3S(=O)(=O)N2C)no1	inactive
Cc1cc(-c2ccccc2)nnc1NCCN1CCOCC1	inactive
CC(C)[C@@H]1CC[C@@H](C)C[C@H]1O	inactive
CC(=O)OC1CCC2(C)C(=CC=C3C2CCC2(C)C3CCC2C(C)/C=C/C(C)C(C)C)C1(C)C (configuration not stated)	inactive
CC(C)C(C)/C=C/C(C)[C@H]1CCC2C3=CCC4CC(=O)CC[C@]4(C)C3CC[C@@]21C (some centres not stated)	inactive
COc1cc2occ(-c3ccccc3)c(=O)c2c(OC)c1C	inactive
CCOC(=O)[C@H](CCc1ccccc1)N[C@@H](C)C(=O)N1[C@H](C(=O)O)C[C@@H]2CCC[C@@H]21	inactive
CC1OC1P(=O)(O)O (configuration not stated)	inactive
C=C1C(=O)OC2CC1C(OC(C)=O)C/C(C)=C/CC/C(C)=C/CC[C@]2(C)O (some centres not stated)	inactive
COc1cc(-c2coc3cc(OCc4ccccc4)c(OC)c(O)c3c2=O)cc(O)c1OC	active
CCCCNc1ccc(C(=O)OCCN(C)C)cc1	inactive
COC(=O)[C@@H]1OC(=O)[C@H]2O[C@@]23[C@@]1(C)CCC1[C@@]2(C)CCC(=O)C(C)(C)C2C[C@@H](OC(C)=O)[C@]13C (some centres not stated)	inactive
Cc1ccc(C)c(OCCCC(C)(C)C(=O)O)c1	active
CCN(CC)C(=O)c1cccc(C)c1	inactive
C=C1C(=O)O[C@@H]2C[C@@]3(C)CCC[C@H](C)C3=C[C@H]12	active
C=C1C(=O)O[C@@H]2C3O[C@]3(C)CC/C=C(\C)CC[C@@H]12 (some centres not stated)	active
O=c1[nH]oc2c1CCNC2	inactive
CC(C)(C)CC(C)(C)c1ccc(O)c(Cc2ccc(Cl)cc2Cl)c1	inactive
COc1cc(-c2coc3cc(OCc4ccccc4)c(OC)c(O)c3c2=O)cc(OCc2ccccc2)c1OC	inactive
CC(C)C(C)/C=C/C(C)C1CCC2C3=CC=C4CC(O)CCC4(C)C3CCC21C (configuration not stated)	active
CCCCOC(=O)c1ccc(N)cc1	active
NC(CO)C(=O)NNCc1ccc(O)c(O)c1O (configuration not stated)	inactive

* * *

assay: chemical genetic growth profiling, strain panel (AID 1159580);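 note: tested at 20 µM; growth read once vehicle control cultures reached saturation at 30 °C; 1 = growth at the plate median or of vehicle wells; lower values mean less growth of the strain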; details: S. cerevisiae deletion strains, growth OD, strain NNK1, hits give low values
Out of some 5,500 compounds screened, about 2,000 (36%) were called active. Roughly 18% stayed inconclusive and do not appear here. Some of the results follow.

cpd smiles	normalized growth
O=C(NNc1ccc(I)cc1)c1cc(Cl)cc(Cl)c1	0.97
CC(C)(C)c1ccc(C(=O)NNc2c(Cl)cccc2Cl)cc1	0.943
Cc1onc(-c2c(F)cccc2Cl)c1C(=O)ON=C1C2CC3CC(C2)CC1C3	1.03
O=[N+]([O-])c1ccc(Sc2ssc(=S)c2-c2ccccc2)nc1	0.956
N#CC(C#N)=Cc1ccc(-c2ccccc2C(F)(F)F)o1	0.922
Cc1onc(-c2c(Cl)cccc2Cl)c1C(=O)NC(C)(C)CC(C)(C)C	0.99
